# TEST_TARGET: human GPBAR1 (Homo sapiens, UniProt Q8TDU6)
# Construct: expressed in transfected cells; host or cells: HEK-293T
# Sequence (Q8TDU6 whole entry): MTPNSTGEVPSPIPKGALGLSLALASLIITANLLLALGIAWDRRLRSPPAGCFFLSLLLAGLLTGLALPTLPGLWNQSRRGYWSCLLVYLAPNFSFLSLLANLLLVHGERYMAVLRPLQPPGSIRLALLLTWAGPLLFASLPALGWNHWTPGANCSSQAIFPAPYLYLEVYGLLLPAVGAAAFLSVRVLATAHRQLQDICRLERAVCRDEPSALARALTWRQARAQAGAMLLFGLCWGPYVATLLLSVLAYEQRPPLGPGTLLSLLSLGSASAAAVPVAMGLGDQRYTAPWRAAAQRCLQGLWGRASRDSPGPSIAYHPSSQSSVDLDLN
# TEST: GPBAR1 mediated transactivation (CRE luciferase reporter) in transfected HEK-293T cells
# Format: cell-based
# CONDITION_DESCRIPTION: each compound at 10 microM, transactivation activity of TLCA on CRE = 100%
ENDPOINT_NAME: GPBAR1 (% of activity in comparison to 10 μM TLCA) (%)
Record the value in %, omitting the unit from your answer.

Entry C[C@H](CCCOS(=O)(=O)O)[C@H]1CCC2C3C(CC[C@@]21C)[C@@]1(C)CCCC[C@H]1C[C@H]3O (stereo partly shown) : reported GPBAR1 (% of activity in comparison to 10 μM TLCA) = ?
28.0

---
Please look up its GPBAR1 (% of activity in comparison to 10 μM TLCA): CC[C@H]1[C@@H](O)C2C3CC[C@H]([C@H](C)CCO)[C@@]3(C)CCC2[C@@]2(C)CC[C@@H](O)C[C@@H]12 (stereo partly shown)
74.5

// lookup GPBAR1 (% of activity in comparison to 10 μM TLCA) for CC[C@H]1[C@@H](O)C2C3CC[C@H]([C@H](C)CCCCC(=O)O)[C@@]3(C)CCC2[C@@]2(C)CC[C@@H](O)C[C@@H]12 (stereo partly shown)
56

What value of GPBAR1 (% of activity in comparison to 10 μM TLCA) has been reported for the following compound? C[C@H](CCO)[C@H]1CCC2C3C(CC[C@@]21C)[C@@]1(C)CC[C@@H](O)C[C@H]1C[C@@H]3O (stereo partly drawn) [BAR107, 3α,7β-dihydroxy-24-nor-5β-cholan-23-ol]
9.9

Please give the measured GPBAR1 (% of activity in comparison to 10 μM TLCA) for this compound: C[C@H](CCCCC(=O)O)[C@H]1CCC2C3C(CC[C@@]21C)[C@@]1(C)CC[C@@H](O)C[C@H]1C[C@@H]3O (stereo partly shown)
23.9
